Target: EPHB1 (UniProt P54762)
Sequence (P54762 whole entry, looked up): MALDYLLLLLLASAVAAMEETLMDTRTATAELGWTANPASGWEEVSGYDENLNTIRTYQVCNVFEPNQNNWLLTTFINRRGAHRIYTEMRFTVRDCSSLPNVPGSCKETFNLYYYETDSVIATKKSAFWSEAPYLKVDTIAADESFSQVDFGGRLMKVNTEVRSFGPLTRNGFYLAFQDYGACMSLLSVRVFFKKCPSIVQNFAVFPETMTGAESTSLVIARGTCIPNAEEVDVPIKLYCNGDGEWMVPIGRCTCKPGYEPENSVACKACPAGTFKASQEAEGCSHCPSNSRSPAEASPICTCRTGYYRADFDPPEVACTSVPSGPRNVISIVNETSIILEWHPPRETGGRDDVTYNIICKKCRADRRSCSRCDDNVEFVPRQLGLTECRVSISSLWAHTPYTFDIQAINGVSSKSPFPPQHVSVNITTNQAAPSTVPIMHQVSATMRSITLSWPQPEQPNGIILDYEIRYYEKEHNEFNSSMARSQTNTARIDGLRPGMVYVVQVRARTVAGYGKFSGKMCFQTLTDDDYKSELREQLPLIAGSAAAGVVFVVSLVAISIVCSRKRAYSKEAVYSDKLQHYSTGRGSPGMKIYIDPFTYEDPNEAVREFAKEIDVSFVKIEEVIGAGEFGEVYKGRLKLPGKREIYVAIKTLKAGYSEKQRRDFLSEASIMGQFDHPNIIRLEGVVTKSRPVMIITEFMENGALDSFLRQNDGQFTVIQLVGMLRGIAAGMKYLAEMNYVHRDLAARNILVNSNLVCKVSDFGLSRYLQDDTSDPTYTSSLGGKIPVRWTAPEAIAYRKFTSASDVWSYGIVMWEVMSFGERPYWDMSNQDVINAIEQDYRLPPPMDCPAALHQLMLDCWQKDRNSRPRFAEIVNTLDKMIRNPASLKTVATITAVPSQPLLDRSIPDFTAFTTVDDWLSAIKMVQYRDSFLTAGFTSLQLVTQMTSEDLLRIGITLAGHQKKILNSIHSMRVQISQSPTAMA
Assay: phosphorylation enrichment, bacterial display (enrichment ratio); higher = better substrate or ligand; peptides without Tyr show the background;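 note: 11-residue human phosphosite peptides and single-mutation variants displayed on the E. coli surface, counted by deep sequencing, each peptide's frequency after selection divided by its frequency in the unselected input library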;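 note: frequency after pTyr selection over input frequency; kinase dosed for 20-30% of maximal phosphorylation in three min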
endpointName: phosphorylation enrichment

[in] Field request: phosphorylation enrichment | item: FRDALYKFMVD [PHEX_Y250_YF]
[out] 0.768

[in] Okay, and VHNLNYFKKTT [FGFR3_Y647_D646N_YF] ?
[out] 0.36

[in] Also need SVIVPYEPPEV [TP53_Y220_V217I] , thanks.
[out] 0.622

[in] Would you kindly repeat that for QPSALYEDRYL [ASS1_Y83_S79P] ?
[out] 1.67

[in] Do the same for WEPFGFAVTRC [PTPRT_Y412_Y412F] please
[out] 0.702

[in] Would you mind doing HFGCIYHGTLL [MET_Y1093_V1092I] as well?
[out] 0.714

[in] How about this sequence: ESLRRYLENGK [HLA-B_Y195_W191S]
[out] 0.431

[in] Now the same for GVIKEYQIRQV [USH2A_Y3623]
[out] 0.376

[in] Do the same for QEIATYRRLLE [KRT14_Y415] please
[out] 0.418

[in] Next record, please: WQQQSYLYSGI [CTNNB1_Y30_D32Y]
[out] 3.97

[in] Then this sequence: TTKGAYSLSVR [YES1_Y194_I198V]
[out] 0.404

[in] Item: LDFNEYFRGLN [HPRT1_Y198_D201G_YF]
[out] 0.832

[in] Try the sequence ILILKYPIEHG [ACTA1_Y71_T68I]
[out] 0.612

[in] Quick one: LARDMYDKEFF [MET_Y1230_YF]
[out] 0.515

---

Tested on: c-Src
Assay: phosphorylation enrichment, bacterial display (enrichment ratio); higher = better substrate or ligand; peptides without Tyr show the background
endpointName: phosphorylation enrichment

[in] Which value of phosphorylation enrichment has been reported for CTTIHNNFMCN [TP53_Y234_Y234N_YF] in the records?
[out] 0.439

[in] And for NVVQEYERVII [NPHS2_Y131_K126N] ?
[out] 0.485

[in] Can you handle TQKLAYMELQQ [CENPF_Y700] next?
[out] 0.509

[in] And KIMVIYDGACQ [VWDE_Y1035_T1032M] ?
[out] 0.796

[in] RGVTRYIFNRE [HLA-DQB1_Y62_Y58G_YF] ?
[out] 1.38

[in] Likewise for IRTIDYRFTVS [IDS_Y497_W502S_YF] ?
[out] 0.458

[in] Again, but for TCRPPYFHRNC [HGD_Y333_F329C_YF]
[out] 0.314

---

Molecular target: EPHB1 (UniProt P54762)
Assay: phosphorylation enrichment, bacterial display (enrichment ratio); higher = better substrate or ligand; peptides without Tyr show the background
For each record, write down the corresponding phosphorylation enrichment.
Just the number, please, no unit after it.

[in] Requested field: phosphorylation enrichment. Item: LLQAEYWHDPI [PPT1_Y185_V181L]
[out] 0.682

[in] Ok, now TTKGSYSLSVR [HCK_Y180]
[out] 0.448

[in] Repeat for the following sequence: EKMWTYMRSAE [GRIA4_Y695]
[out] 0.573

[in] Can you handle DTLMEYLENPK [CYCS_Y68] next?
[out] 0.672

[in] How about this sequence: AELVRYYMEHH [PTPN11_Y80_Q79R]
[out] 1.03

[in] Another sequence to look at: AVLQPYIFVAT [CFTR_Y1014]
[out] 0.84

[in] How about this sequence: ISNATYKQIGL [FLT1_Y199_E201Q]
[out] 0.421
